measuredOn: MCL-1/Bim interaction (recombinant human MCL-1 protein, residues 171-327; biotinylated human Bim peptide, residues 51-76) (Homo sapiens (Human), UniProt Q07820)
Sequence (Q07820 171-327): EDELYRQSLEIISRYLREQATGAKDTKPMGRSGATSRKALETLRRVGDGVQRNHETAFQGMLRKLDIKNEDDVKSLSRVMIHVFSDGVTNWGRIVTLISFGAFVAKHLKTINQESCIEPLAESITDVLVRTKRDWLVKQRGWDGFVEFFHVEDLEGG
experimentDescription: MCL-1/Bim Binding AlphaLISA Assay
experimentalSetup: 0.0625 nM 6xHis-Mcl-1 (171-327), 0.0625 nM biotinylated-Bim peptide
For each of the molecules below, state its pIC50.
Give bare numbers, as −log10 of the molar value.

These solved cases illustrate the format of a correct answer.
molecule	value
COc1nn(C)cc1C(=O)N[S@@]1(=O)=NC(=O)c2ccc3c(c2)N(C[C@@H]2CC[C@H]2[C@H](O)/C=C/C[C@H](C)[C@H]1C)C[C@@]1(CCCc2cc(Cl)ccc21)CO3	9.99
CO[C@H]1/C=C/CCC[S@@](=O)(NC(=O)CCc2cncnc2)=NC(=O)c2ccc3c(c2)N(C[C@@H]2CC[C@H]21)C[C@@]1(CCCc2cc(Cl)ccc21)CO3	9.70
CO[C@H]1/C=C/C[C@H](C)C[S@@](=O)(NC(=O)N[C@@H]2C[C@@H]2F)=NC(=O)c2ccc3c(c2)N(C[C@@H]2CC[C@H]21)C[C@@]1(CCCc2cc(Cl)ccc21)CO3	10.10
CO[C@H]1/C=C/C[C@H](C)C[S@@](=O)(NC(=O)N2CC(OC3CC3)C2)=NC(=O)c2ccc3c(c2)N(C[C@@H]2CC[C@H]21)C[C@@]1(CCCc2cc(Cl)ccc21)CO3	10.14

Go through the list and state pIC50 for each entry.
1. CO[C@H]1/C=C/C[C@H](C)C[S@@](=O)(NC(=O)c2cc(CN(C)C3CCOCC3)n(C)c2)=NC(=O)c2ccc3c(c2)N(C[C@@H]2CC[C@H]21)C[C@@]1(CCCc2cc(Cl)ccc21)CO3
2. CO[C@H]1/C=C/C[C@H](C)C[S@@](=O)(NC(=O)c2coc(C)c2)=NC(=O)c2ccc3c(c2)N(C[C@@H]2CC[C@H]21)C[C@@]1(CCCc2cc(Cl)ccc21)CO3

[out]
10.06
10.32

Go through the list and state pIC50 for each entry.
1. CO[C@H]1/C=C/C[C@H](C)C[S@@](=O)(NC(=O)C2CC3(CCC3)C2)=NC(=O)c2ccc3c(c2)N(C[C@@H]2CC[C@H]21)C[C@@]1(CCCc2cc(Cl)ccc21)CO3
2. CO[C@H]1/C=C/CCC[S@@](=O)(NC(=O)NCc2ccnn2C)=NC(=O)c2ccc3c(c2)N(C[C@@H]2CC[C@H]21)C[C@@]1(CCCc2cc(Cl)ccc21)CO3
3. CO[C@H]1/C=C/C[C@H](C)C[S@@](=O)(NC(=O)NC2C[C@H]2C(F)F)=NC(=O)c2ccc3c(c2)N(C[C@@H]2CC[C@H]21)C[C@@]1(CCCc2cc(Cl)ccc21)CO3 (stereo partly shown)
4. COc1nn(C)cc1C(=O)N[S@@]1(=O)=NC(=O)c2ccc3c(c2)N(C[C@@H]2CC[C@H]2[C@@H](OC(C)=O)/C=C/C[C@H](C)[C@H]1C)C[C@@]1(CCCc2cc(Cl)ccc21)CO3

[out]
[9.05, 9.52, 9.79, 9.85]
